# Test system: SF-295
# measurement_protocol: NCI tumour cell line growth inhibition, 48 h
Activity calls are given as the source filed them. Rule as the data show it: active = GI50 up to about 1.1 µM and inactive = higher.
Possible outcomes: active, inactive

| compound | assay_target | label |
| --- | --- | --- |
| Cc1ccc(S(=O)OC23CC4CC(CC(C4)C2)C3)cc1 (stereo not given) | SF-295 | inactive |
| Cc1ccccc1NC(=O)/C(=N/NC(=O)CC#N)C1C(=O)N(c2ccccc2)N=C1N (stereo not given) | SF-295 | inactive |
| COc1ccc2nc(-c3ccc(O)cc3)sc2c1 | SF-295 | inactive |
| N#CCC(=O)Nn1c(CC#N)nnc1Cc1ccccc1 | SF-295 | inactive |
| CCCC(=O)Nc1cc(C(=O)N2C[C@H]3C[C@@]34C2=CC(=O)c2[nH]cc(C)c24)n(COC)c1 | SF-295 | active |
| NNC(=O)c1nnn(N)c1S | SF-295 | inactive |
| COc1cc(/C=C/c2ccccn2)cc(OC)c1OC | SF-295 | inactive |
| COC(=O)Cc1cc(=O)n2c([nH]c3ccccc32)c1C#N | SF-295 | inactive |
| CCN(CC)CCCNc1nccc2c(C)c3[nH]c4ccncc4c(=O)c3cc12 | SF-295 | inactive |
| CC[C@]1(Cc2ccc(OC)c(OC)c2)C=[N+]([O-])O[C@H](OCc2ccccc2)[C@@H]1OC(C)=O | SF-295 | inactive |

* * *

# Test system: LOX IMVI
# measurement_protocol: NCI tumour cell line growth inhibition, 48 h
Where a name gives a salt, the structure may show the parent alone. Activity calls are given as the source filed them. Cut-off read from the data, not from the text of the source: active = GI50 up to about 1.1 µM and inactive = higher.
Outcomes: 1.0 for active, 0.0 for inactive

| molecule | label |
| --- | --- |
| Nn1c(=O)n(Cc2ccccc2)n(-c2ccccc2)c1=O | 0.0 |
| CCN(CC)CCCNc1nncc2c(C)c3[nH]c4ccccc4c3cc12 | 1.0 |
| CC1=CC(=O)N(n2c(C)n[nH]c2=O)C1=O | 0.0 |
| O=[N+]([O-])c1ccc(Cl)c(/C=N/C23CC4CC(CC(C4)C2)C3)c1 | 0.0 |
| c1c(N2CCOCC2)s[s+]c1N1CCOCC1 | 0.0 |
| Cc1ccc(Oc2ccc(C)cc2[N+](=O)[O-])cc1 | 0.0 |
| N=c1oc2cc(O)ccc2cc1C(=O)Nc1ccccn1 | 0.0 |
| COC(=O)C(=O)C(CC(=O)Nc1cc(Cl)ccc1Cl)C(=O)OC (stereo unspecified) | 0.0 |
| O=C1c2c(O)cccc2-c2nn(CCNCCO)c3ccc(NCCNCCO)c1c23 [LOSOXANTRONE HYDROCHLORIDE] | 1.0 |
| CCOC(=O)COc1ccccc1/C=C1\CCC(CN(C)C)C1=O (stereo unspecified) | 0.0 |
| Cc1ccccc1NC(=O)/C(=N/NC(=O)CC#N)C1C(=O)N(c2ccccc2)N=C1N (stereo unspecified) | 0.0 |

* * *

# System: OVCAR-3
# measurement_protocol: NCI tumour cell line growth inhibition, 48 h
The source made the active and inactive calls. Rule as the data show it: active = GI50 up to about 1.1 µM and inactive = higher.
Classes used: active, inactive

| molecule | label |
| --- | --- |
| C=CCNC(=O)C(C)C1CCC2(C)C=CC(=O)C(C)=C2C1O (configuration not stated) | inactive |
| CCOC(=O)C1=C(C)NC(=S)NC1c1ccccc1 (configuration not stated) | inactive |
| CCC1(C)N=c2c(ncn2N=C(C)C)=C(C(N)=O)N1 (configuration not stated) | inactive |
| COC(=N)c1ncn(Cc2ccccc2)c1N | inactive |
| NC1=NC(=O)/C(=C/c2ccccc2[N+](=O)[O-])C(N)=N1 | inactive |
| COc1cc([C@@H]2c3cc4c(cc3[C@H](OC3OC5COC(C(C)C)OC5C(O)C3O)C3COC(=O)[C@@H]32)OCO4)cc(OC)c1OC (some centres not stated) | inactive |
| Cc1ccc(S(=O)OC23CC4CC(CC(C4)C2)C3)cc1 (configuration not stated) | inactive |
| CC(C(=O)c1ccncc1)c1ccccn1 (configuration not stated) | inactive |
| Cc1ccc(/C=C2/N/C(=N\N=C/C(O)C(O)C(O)C(O)CO)NC2=O)cc1 (configuration not stated) | inactive |
| CN(C)CCNC(=O)c1ccc(Cl)c2c(Nc3ccc(S(=O)(=O)N=C(N)N)cc3)c3ccccc3nc12 | inactive |
| O=C1OC(c2ccccc2)=N/C1=C\c1ccc(F)cc1 | inactive |
| COc1cc(CCN(C)C)cc(OC)c1OC | inactive |
| O=C(O)CN(CC(=O)O)Cc1ccn(-c2cccc(-n3ccc(CN(CC(=O)O)CC(=O)O)n3)n2)n1 | inactive |
| COc1cccc2c1NC(=O)Cc1c-2[nH]c2ccccc12 | inactive |
| COC(=O)C(=O)C(CC(=O)Nc1cc(Cl)ccc1Cl)C(=O)OC (configuration not stated) | inactive |
| COc1ccc2c(c1)C(OC)C1c3c(cc4c(c3-2)OCO4)CCN1C (configuration not stated) | inactive |
| CC(=O)c1cccc(NC(=O)/C(=N\NC(=S)NN)C2C(=O)Nc3ccccc3[S+]2[O-])c1 (configuration not stated) | inactive |
| CC12CCC3C(CCC4(O)C=CCCC34C=O)C1(O)CC(O)C2c1ccc(=O)oc1 (configuration not stated) | active |
| Nc1nc(Cl)c(N)c(NCC2(CO)CCC(CCc3ccccc3)C2)n1 (configuration not stated) | inactive |
| O=C(Oc1c(Br)cc(Br)cc1C(=O)Oc1ccccc1)C(=O)Oc1c(Br)cc(Br)cc1C(=O)Oc1ccccc1 | inactive |
| CC[C@H]1C=CCC[C@@]2(C[C@@H]3CC[C@@H]4[C@H](C(=O)OCCCCCCCCCCCCCCCC(=O)O)[C@]5(CCC[C@@H](C)O5)NC(=[N+]34)N2)O1 | active |
| O=C(Nn1c(-c2ccccc2)nc2ccccc2c1=O)c1ccc(O)cc1 | inactive |
| C=C1C[C@H]2C=Nc3cc(OCCCOc4cc5c(cc4OC)C(=O)N4CC(=C)C[C@H]4C=N5)c(OC)cc3C(=O)N2C1 | active |
| C/C=C/c1cc(=O)c([C@@H]2OC(=O)c3cc(OC)cc(OC)c32)co1 | inactive |
| COC(=O)C1=CC2C=CC(C1C(=O)OC)C1C(C(=O)OC)=C(C(=O)OC)C(C(=O)OC)=C(C(=O)OC)C21OC (configuration not stated) | inactive |
| CC1(Cc2cc3c(cc2C2(c4ccc([N+](=O)[O-])cc4)OCCO2)OCO3)OCCO1 | inactive |
| N#CI1OC(C(F)(F)F)(C(F)(F)F)c2ccccc21 | inactive |
| N#Cc1c2c(c(Cl)n3c1nc1ccccc13)CCCC2 | inactive |
| C=CCOc1ccc(C2c3c(n[nH]c3O)CC(O)(OCC)C2C(=O)OCC)cc1OC (configuration not stated) | inactive |
| CC(=O)CC(=O)Nc1ccc(OS(N)(=O)=O)cc1 | inactive |
| COC(=O)[C@]1(C)CCCC2(C)C1CC[C@H]1C=C(C)[C@H]3CCC12C3 (some centres not stated) | inactive |
| CC1CCCP(=O)(c2ccccc2)CC1 (configuration not stated) | inactive |
| CC1=CP(=O)(OC(C)C)CC(C)=C1Cl (configuration not stated) | inactive |
| O=S1(=O)N2CN3CN(C2)CN1C3 | inactive |
| O=C1CSC(c2c[nH]c3ccccc23)N1c1ccccc1[N+](=O)[O-] (configuration not stated) | inactive |
| CCNCCCNc1c2ccccc2nc2ccccc12 | active |
| N#Cc1c2c(c(N)oc1=O)C(c1ccccc1)CC(=O)N2 (configuration not stated) | inactive |
| Cc1ccc2nc(N/N=C/c3ccc(C)s3)cc(C)c2c1 | inactive |
| COC(=O)C1CC2(c3ccccc3)C(=O)c3ccccc3N2O1 (configuration not stated) | inactive |
| O=C(O)c1ccc(C(=O)Nc2cccc3ccccc23)c(C(=O)O)c1 | inactive |
| CC(=O)CC1(CBr)Nc2ccc([N+](=O)[O-])cc2NC1=O (configuration not stated) | inactive |
| COC(=O)C1(CCCCCBr)CCCCCCCCCCC1=O (configuration not stated) | inactive |
